assay: inhibitors of TNFa-induced NFkB p65 translocation, primary screen, imaging, HUVEC, MLSMR starter and 10KST1 sets (AID 438); conditions: HUVEC TNFa-induced p65 nuclear translocation; at 2 µM, stronger effect = higher value, 0% TNFa-plus-vehicle, 100% no-TNFa wells;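 note: compound added about 3h40 before a 20 min TNFalpha stimulation; signal is the nuclear over cytoplasmic p65 intensity ratio per well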
Listed molecules paired with reported inhibition
Reply with just the number (in %).

Item: CC(=O)Oc1ccccc1C1OCCN1C(C)=O (configuration not stated) | inhibition: -6.5

Item: CCCCC1(C(=O)OCC)CC(CN2CCOCC2)OC1=O (configuration not stated) | inhibition: -21.5

====

assay: inhibitors of mutant huntingtin aggregation, primary screen, imaging, exon1htt(103Q)mCFP cells, high-content imaging (AID 483); settings: exon1htt(103Q)mCFP cell line, aggregate imaging, at 2 µM; measured here: cell count, toxicity;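 note: compound exposure lasted 3 days before fixation; percent of the per-plate median nuclei count of sample wells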
Property measured: nuclei count (%)
Reply with just the number (in %).

Below, each entry is followed by its recorded nuclei count result.
CCCOc1cccc(-c2nnc(N)s2)c1    108
CCC(=O)N[C@@H]1CC(C(C)(C)NC(=O)CC)CC=C1C (stereo not given in full)    110
O=C(Nc1nccs1)NC(C(F)(F)F)C(F)(F)F    101
CN(CCO)CC(O)Cn1cnc2c1c(=O)n(C)c(=O)n2C (stereo not given) (tested in a mixture with another compound)    103

Shift focus to the following entry.
Item: O=C(NC1(C(F)(F)F)C(=O)Nc2c1c(=O)[nH]c(=O)n2Cc1ccco1)C1CCCCC1 (stereo not given) | nuclei count: 116
